System: NCI-H1417;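 note: human NCI-H1417 cells, growth inhibition determined with a cell viability readout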
MEASUREMENT_PROTOCOL: cells
Assay type: functional, cell-based, Homo sapiens
CONDITION_LABEL: Homo sapiens, NCI-H1417
Description: SANGER: Inhibition of human NCI-H1417 cell growth in a cell viability assay.
Structures can show the parent of a compound that is named as a salt.
Listing of recorded IC50 by entry.
Number in nM, nothing else.

Prompt line: What IC50 appears in the records for this compound with NCI-H1417? COC1=CC(c2cc3ccccc3[nH]2)=N/C1=C\c1[nH]c(C)cc1C [OBATOCLAX MESYLATE]
Response line: 265

Prompt line: Recorded IC50 for `COc1cccc2c1C(=O)c1c(O)c3c(c(O)c1C2=O)C[C@@](O)(C(=O)CO)C[C@@H]3O[C@H]1C[C@H](N)[C@H](O)[C@H](C)O1` with NCI-H1417, please?
Response line: 370

----------
System: EB-3;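 note: human EB-3 cells, growth inhibition read out via a cell viability assay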
MEASUREMENT_PROTOCOL: cells
Type: functional, cell-based, Homo sapiens
CONDITION_LABEL: eb-3
Description: SANGER: Inhibition of human EB-3 cell growth in a cell viability assay.
OBSERVATION_TYPE: IC50 (µM)
The response must be a number in µM with no trailing unit.

Prompt line: Which measured IC50 value corresponds to `BLEOMYCIN` ?
Response line: 21.8

----------
pIC50 values by entry
Tested on: COLO-792
MEASUREMENT_PROTOCOL: cells
Type: functional, cell-based, Homo sapiens
CONDITION_LABEL: Homo sapiens, COLO-792
Description: SANGER: Inhibition of human COLO-792 cell growth in a cell viability assay.
pIC50: −log10 of the molar value.

Some solved entries appear below for comparison.
[
  {
    "COMPOUND": "CO[C@H]1C[C@@H]2CC[C@@H](C)[C@@](O)(O2)C(=O)C(=O)N2CCCC[C@H]2C(=O)O[C@H]([C@H](C)C[C@@H]2CC[C@@H](OC(=O)C(C)(CO)CO)[C@H](OC)C2)CC(=O)[C@H](C)/C=C(\\C)[C@@H](O)[C@@H](OC)C(=O)[C@H](C)C[C@H](C)/C=C/C=C/C=C/1C",
    "pIC50": "< 6.70"
  },
  {
    "COMPOUND": "CS(=O)(=O)c1ccc(C(=O)Nc2ccc(Cl)c(-c3ccccn3)c2)c(Cl)c1",
    "pIC50": "< 5.00"
  },
  {
    "COMPOUND": "CC(C)c1ccccc1Cc1cc(C(=O)Nc2ccc(S(=O)(=O)c3ccccc3C(C)(C)C)cc2)c(O)c(O)c1O",
    "pIC50": 6.61
  }
]

Prompt line: What pIC50 appears in the records for this compound with COLO-792? `CC1(C)CNc2cc(NC(=O)c3cccnc3NCc3ccncc3)ccc21`
Response line: < 5.70

Prompt line: Give recorded pIC50 with COLO-792 for the following compound: `N#Cc1c(O)c2c(-c3ccc(-c4ccccc4O)cc3)csc2[nH]c1=O`
Response line: < 5.99

Prompt line: // lookup pIC50 | system=COLO-792 | key= Nc1cccc2c1CN(C1CCC(=O)NC1=O)C2=O (stereo unspecified) [LENALIDOMIDE]
Response line: < 5.30

----------
Each entry below carries its reported IC50.
Tested on: HCC70;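 note: cell viability assay measuring how strongly the compound suppresses proliferation of HCC70 cells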
MEASUREMENT_PROTOCOL: cells
Format: functional, cell-based, Homo sapiens
CONDITION_LABEL: Homo sapiens, HCC70
Description: SANGER: Inhibition of human HCC70 cell growth in a cell viability assay.

[
  {
    "ENTRY_SMILES": "C=C(c1ccc(C(=O)O)cc1)c1cc2c(cc1C)C(C)(C)CCC2(C)C",
    "IC50": "> 8 µM"
  }
]

Prompt line: Need IC50 of `CC1(C)CNc2cc(NC(=O)c3cccnc3NCc3ccncc3)ccc21` , thanks.
Response line: > 2 µM

Prompt line: Fill blank: measured IC50 of the compound `N#Cc1c(O)c2c(-c3ccc(-c4ccccc4O)cc3)csc2[nH]c1=O` is ____.
Response line: > 1.02 µM
